HCV NS5B polymerase (Hepatitis C virus genotype 1b) measurements of IC50, listed per entry.
Sequence (P26663 2420-3010): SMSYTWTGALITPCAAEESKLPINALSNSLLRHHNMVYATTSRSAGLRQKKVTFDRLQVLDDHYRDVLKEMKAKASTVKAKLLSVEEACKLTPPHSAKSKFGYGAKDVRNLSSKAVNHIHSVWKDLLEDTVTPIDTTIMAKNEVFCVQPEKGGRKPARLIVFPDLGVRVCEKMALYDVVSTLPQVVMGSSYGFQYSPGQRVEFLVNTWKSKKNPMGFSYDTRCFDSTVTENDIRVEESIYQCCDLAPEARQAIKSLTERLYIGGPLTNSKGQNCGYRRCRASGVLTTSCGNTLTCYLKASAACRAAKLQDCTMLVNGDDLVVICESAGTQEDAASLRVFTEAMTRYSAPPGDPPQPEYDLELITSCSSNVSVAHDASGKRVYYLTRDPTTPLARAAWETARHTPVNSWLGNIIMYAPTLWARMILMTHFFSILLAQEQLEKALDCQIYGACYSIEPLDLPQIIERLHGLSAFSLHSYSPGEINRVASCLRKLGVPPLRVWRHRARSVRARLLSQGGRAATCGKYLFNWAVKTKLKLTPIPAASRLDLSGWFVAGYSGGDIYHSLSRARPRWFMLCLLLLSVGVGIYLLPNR

1) CC(C)=Cc1nn(CCC2CC2)c(=O)c(C2=Nc3ccc(NS(C)(=O)=O)cc3S(=O)(=O)N2)c1O :: < 100 nM
2) CC(C)(C)CCn1nc(-c2cccs2)c(O)c(C2=NS(=O)(=O)c3cc(NS(N)(=O)=O)ccc3N2)c1=O :: < 100 nM
3) CCS(=O)(=O)Nc1ccc2c(c1)S(=O)(=O)NC(c1c(O)c(-c3cncs3)nn(CCC(C)C)c1=O)=N2 :: < 100 nM
4) CC(C)CCn1nc(-c2cccs2)c(O)c(C2=Nc3ccc(N(COCc4ccccc4)S(C)(=O)=O)cc3S(=O)(=O)N2)c1=O :: 1000 to 10000 nM
5) CS(=O)(=O)Nc1ccc2c(c1)S(=O)(=O)N=C(c1c(O)c(-c3cccs3)nn(Cc3ccc(F)cc3)c1=O)N2 :: < 100 nM
6) CC(C)CCn1nc(-c2cccs2)c(OC(=O)C(C)C)c(C2=Nc3ccc(N(C)S(C)(=O)=O)cc3S(=O)(=O)N2)c1=O :: 1000 to 10000 nM
7) CS(=O)(=O)Nc1ccc2c(c1)S(=O)(=O)NC(c1c(O)c(-c3cccs3)nn(Cc3ccccn3)c1=O)=N2 :: < 100 nM
8) CC(C)CCn1nc(-c2cccs2)c(O)c(C2=NS(=O)(=O)c3cc(CCS(C)(=O)=O)ccc3N2)c1=O :: 100 to 1000 nM

Ask | Output reported IC50 of the molecule CC(C)(C)CCn1nc(-c2cccs2)c(O)c(C2=Nc3ccc(NS(=O)(=O)CCN)cc3S(=O)(=O)N2)c1=O on HCV NS5B polymerase (Hepatitis C virus genotype 1b).
Reply | < 100 nM

Ask | // fetch IC50; item: CC(C)(C)c1nn(Cc2ccc(F)c(Cl)c2)c(=O)c(C2=Nc3ccc(NS(C)(=O)=O)cc3S(=O)(=O)N2)c1O ; system: HCV NS5B polymerase (Hepatitis C virus genotype 1b)
Reply | 100 to 1000 nM

Ask | Send back HCV NS5B polymerase (Hepatitis C virus genotype 1b) IC50 of CC(C)=Cc1nn(CCC(C)C)c(=O)c(C2=NS(=O)(=O)c3cc(NS(C)(=O)=O)ccc3N2)c1O only.
Reply | < 100 nM

Ask | # assay system HCV NS5B polymerase (Hepatitis C virus genotype 1b): give IC50 of CCCS(=O)(=O)Nc1ccc2c(c1)S(=O)(=O)NC(c1c(O)c(-c3cncs3)nn(CCC(C)C)c1=O)=N2
Reply | < 100 nM

Ask | With HCV NS5B polymerase (Hepatitis C virus genotype 1b) as the test system, provide measured IC50 for this molecule: CC(C)(C)Cn1nc(-c2cccs2)c(O)c(C2=Nc3ccc(NS(C)(=O)=O)cc3S(=O)(=O)N2)c1=O
Reply | < 100 nM

Ask | Report IC50 under test system HCV NS5B polymerase (Hepatitis C virus genotype 1b) for CCCS(=O)(=O)Nc1ccc2c(c1)S(=O)(=O)N=C(c1c(O)c(-c3cccs3)nn(CCC(C)C)c1=O)N2 .
Reply | < 100 nM

Ask | Provide measured IC50 on HCV NS5B polymerase (Hepatitis C virus genotype 1b) for CN1C(c2c(O)c(-c3cccs3)nn(Cc3ccc(F)cc3)c2=O)=NS(=O)(=O)c2cc(NS(C)(=O)=O)ccc21 please.
Reply | 1000 to 10000 nM

Ask | Retrieve IC50 on HCV NS5B polymerase (Hepatitis C virus genotype 1b); query CC(C)CCn1nc(-c2cccs2)c(O)c(C2=Nc3ccc(/C=C/S(C)(=O)=O)cc3S(=O)(=O)N2)c1=O
Reply | 100 to 1000 nM
